test system: Pseudomonas aeruginosa; test: Antibacterial activity against multidrug-resistant Pseudomonas aeruginosa 50692520 producing Verona integron encoded metallo beta-lactamse cultured in MHB medium assessed as reduction in bacterial growth incubated for 24 hrs by microdilution susceptibility test; assay type: functional; settings: Pseudomonas aeruginosa, 50692520, 24 h
endpoint name: MIC (µg/mL)
# value in µg/mL; strip the unit string

*Q* Please indicate MIC recorded for NCCNCC(CN)(Cc1ccccc1Br)Cc1ccccc1Br
*A* 16

*Q* Answer with reported MIC of NCCNCC(CN)(Cc1cc(C(F)(F)F)cc(C(F)(F)F)c1)Cc1cc(C(F)(F)F)cc(C(F)(F)F)c1
*A* 32

*Q* Give MIC for N=C(N)NCCNC(=O)C(CNC(=N)N)(Cc1cc(C(F)(F)F)cc(C(F)(F)F)c1)Cc1cc(C(F)(F)F)cc(C(F)(F)F)c1
*A* 16

*Q* In one line, give reported MIC of the entry NCCNCC(CN)(Cc1ccc(F)c2ccccc12)Cc1ccc(F)c2ccccc12 .
*A* 16

###

tested on: Escherichia coli; assay: Antibacterial activity against Escherichia coli ATCC 25922 cultured in MHB medium assessed as no bacterial growth incubated at 37 degC for 24 hrs by microdilution susceptibility test; type: functional; conditions: ATCC 25922, 24 h
I'd be grateful if you could share measured MIC for these entries.
# value in µg/mL; strip the unit string

*Q* // fetch MIC given entry N=C(N)NCCNC(=O)C(CNC(=N)N)(Cc1cc(C(F)(F)F)cc(C(F)(F)F)c1)Cc1cc(C(F)(F)F)cc(C(F)(F)F)c1
*A* 4

*Q* # return recorded MIC for entry N#CC(Cc1ccc(C(F)(F)F)cc1)(Cc1ccc(C(F)(F)F)cc1)C(=O)NCCN
*A* 16

*Q* Item NCCNC(=O)C(CN)(Cc1ccccc1Br)Cc1ccccc1Br : provide MIC
*A* 64

*Q* Given NCCNCC(CN)(Cc1cc(Br)cc(Br)c1)Cc1cc(Br)cc(Br)c1 , respond with its MIC.
*A* 4

*Q* Give a short answer stating reported MIC for NCCNCC(CN)(Cc1ccccc1Br)Cc1ccccc1Br .
*A* 16

*Q* Hello, please tell me recorded MIC for this one: N#CC(Cc1ccc(F)c2ccccc12)(Cc1ccc(F)c2ccccc12)C(=O)NCCN
*A* 4

*Q* Give the reported value of MIC for this record: N=C(N)NCCNC(=O)C(CNC(=N)N)(Cc1ccc(F)c2ccccc12)Cc1ccc(F)c2ccccc12
*A* 16

*Q* Look up and report measured MIC for this entry: N#CC(Cc1cc(C(F)(F)F)cc(C(F)(F)F)c1)(Cc1cc(C(F)(F)F)cc(C(F)(F)F)c1)C(=O)NCCN
*A* 32

*Q* Identify MIC associated with the compound NCCNC(=O)C(CN)(Cc1cc(Br)cc(Br)c1)Cc1cc(Br)cc(Br)c1
*A* 4

*Q* Supply measured MIC of NCCNC(=O)C(CN)(Cc1cc(C(F)(F)F)cc(C(F)(F)F)c1)Cc1cc(C(F)(F)F)cc(C(F)(F)F)c1 in your reply.
*A* 4

*Q* Check the records and state MIC for NCCNCC(CN)(Cc1cc(C(F)(F)F)cc(C(F)(F)F)c1)Cc1cc(C(F)(F)F)cc(C(F)(F)F)c1
*A* 4

*Q* Kindly indicate its recorded MIC. Item: NCCNCC(CN)(Cc1ccc(F)c2ccccc12)Cc1ccc(F)c2ccccc12
*A* 4

*Q* Return MIC (reported value) for this compound: CN(C)[C@@H]1C(O)=C(C(N)=O)C(=O)[C@@]2(O)C(O)=C3C(=O)c4c(O)cccc4[C@@](C)(O)[C@H]3[C@H](O)[C@@H]12.Cl [OXYTETRACYCLINE HYDROCHLORIDE]
*A* 2.5

*Q* Return value of MIC for input NCCNC(=O)C(CN)(Cc1ccccc1C(F)(F)F)Cc1ccccc1C(F)(F)F , no commentary.
*A* 32

###

system: Pseudomonas aeruginosa; test: Antibacterial activity against multidrug-resistant Pseudomonas aeruginosa 50692520 producing Verona integron encoded metallo beta-lactamse cultured in MHB medium assessed as reduction in bacterial growth incubated for 24 hrs by microdilution susceptibility test; format: functional; settings: Pseudomonas aeruginosa, 50692520, 24 h
endpoint name: MIC (µg/mL)
# output: bare number, implied unit µg/mL

*Q* Provide only the value of recorded MIC for N=C(N)NCCNC(=O)C(CNC(=N)N)(Cc1cc(Br)cc(Br)c1)Cc1cc(Br)cc(Br)c1
*A* 4

*Q* For the compound NCCNCC(CN)(Cc1cc(Br)cc(Br)c1)Cc1cc(Br)cc(Br)c1 , give its measured MIC value.
*A* 32

###

system: Pseudomonas aeruginosa; experiment: Antibacterial activity against multidrug-resistant Pseudomonas aeruginosa K34-73 producing Verona integron encoded metallo beta-lactamse-4 cultured in MHB medium assessed as reduction in bacterial growth incubated for 24 hrs by microdilution susceptibility test; assay type: functional; settings: K34-73, 24 h
Exercise: for every item that follows, state its recorded MIC.
Report the value in µg/mL with no unit label.

*Q* Entry NCCNCC(CN)(Cc1cc(C(F)(F)F)cc(C(F)(F)F)c1)Cc1cc(C(F)(F)F)cc(C(F)(F)F)c1 needs its MIC filled in; supply it.
*A* 32

*Q* Return the recorded MIC value; entry: NCCNCC(CN)(Cc1ccc(F)c2ccccc12)Cc1ccc(F)c2ccccc12
*A* 16

*Q* Provide only the value of recorded MIC for NCCNC(=O)C(CN)(Cc1cc(C(F)(F)F)cc(C(F)(F)F)c1)Cc1cc(C(F)(F)F)cc(C(F)(F)F)c1
*A* 32

*Q* Quick one: give measured MIC for NCCNC(=O)C(CN)(Cc1cc(Br)cc(Br)c1)Cc1cc(Br)cc(Br)c1
*A* 32

*Q* Hello, please tell me recorded MIC for this one: N=C(N)NCCNC(=O)C(CNC(=N)N)(Cc1cc(Br)cc(Br)c1)Cc1cc(Br)cc(Br)c1
*A* 16

*Q* Consider the compound N=C(N)NCCNC(=O)C(CNC(=N)N)(Cc1cc(C(F)(F)F)cc(C(F)(F)F)c1)Cc1cc(C(F)(F)F)cc(C(F)(F)F)c1 and give its recorded MIC.
*A* 16

*Q* In one line, give reported MIC of the entry NCCNCC(CN)(Cc1cc(Br)cc(Br)c1)Cc1cc(Br)cc(Br)c1 .
*A* 16

*Q* Provide only the value of recorded MIC for NCCNCC(CN)(Cc1ccccc1Br)Cc1ccccc1Br
*A* 32

*Q* Input NCCNC(=O)C(CN)(Cc1ccc(F)c2ccccc12)Cc1ccc(F)c2ccccc12 , output reported MIC.
*A* 32

###

tested on: Acinetobacter baumannii; test: Antibacterial activity against multidrug-resistant Acinetobacter baumannii K55-13 producing oxcillinase-24 cultured in MHB medium assessed as reduction in bacterial growth incubated for 24 hrs by microdilution susceptibility test; type: functional; conditions: K55-13, 24 h
Answer each item with its documented MIC.
Quick reminder: number only, in µg/mL, skip the unit.

*Q* Give the reported MIC for this molecule. NCCNCC(CN)(Cc1cc(C(F)(F)F)cc(C(F)(F)F)c1)Cc1cc(C(F)(F)F)cc(C(F)(F)F)c1
*A* 8

*Q* Give reported MIC value for NCCNC(=O)C(CN)(Cc1ccc(F)c2ccccc12)Cc1ccc(F)c2ccccc12
*A* 32

###

test system: Acinetobacter baumannii; test: Antibacterial activity against multidrug-resistant Acinetobacter baumannii K12-21 producing oxcillinase-58 cultured in MHB medium assessed as reduction in bacterial growth incubated for 24 hrs by microdilution susceptibility test; assay type: functional; settings: K12-21, 24 h
endpoint name: MIC (µg/mL)
Kindly answer with a numeric value in µg/mL, unit omitted.

*Q* Identify the reported MIC for the following entry. NCCNCC(CN)(Cc1cc(Br)cc(Br)c1)Cc1cc(Br)cc(Br)c1
*A* 16

*Q* Output measured MIC for this item: NCCNCC(CN)(Cc1ccc(F)c2ccccc12)Cc1ccc(F)c2ccccc12
*A* 8

*Q* Answer with the recorded MIC for the molecule listed here: NCCNCC(CN)(Cc1cc(C(F)(F)F)cc(C(F)(F)F)c1)Cc1cc(C(F)(F)F)cc(C(F)(F)F)c1
*A* 8

*Q* Give recorded MIC. NCCNC(=O)C(CN)(Cc1cc(Br)cc(Br)c1)Cc1cc(Br)cc(Br)c1
*A* 32

*Q* Note down MIC recorded for NCCNC(=O)C(CN)(Cc1cc(C(F)(F)F)cc(C(F)(F)F)c1)Cc1cc(C(F)(F)F)cc(C(F)(F)F)c1
*A* 8

*Q* Provide measured MIC value, entry: N=C(N)NCCNC(=O)C(CNC(=N)N)(Cc1cc(Br)cc(Br)c1)Cc1cc(Br)cc(Br)c1
*A* 16

*Q* Specify measured MIC for NCCNC(=O)C(CN)(Cc1ccc(F)c2ccccc12)Cc1ccc(F)c2ccccc12 .
*A* 32

*Q* Answer with reported MIC of NCCNCC(CN)(Cc1ccccc1Br)Cc1ccccc1Br
*A* 16

###

Please respond with reported MIC for every item in the list.
test system: Staphylococcus aureus; assay: Antibacterial activity against multidrug-resistant Staphylococcus aureus NCTC 10442 cultured in MHB medium assessed as reduction in bacterial growth incubated for 24 hrs by microdilution susceptibility test; type: functional; settings: NCTC 10442, 24 h
Report the figure in µg/mL without appending any unit label.

*Q* Determine from records and report MIC for N#CC(Cc1cc(C(F)(F)F)cc(C(F)(F)F)c1)(Cc1cc(C(F)(F)F)cc(C(F)(F)F)c1)C(=O)NCCN
*A* 32

*Q* Report measured MIC; entry is N=C(N)NCCNC(=O)C(CNC(=N)N)(Cc1cc(C(F)(F)F)cc(C(F)(F)F)c1)Cc1cc(C(F)(F)F)cc(C(F)(F)F)c1
*A* 8

*Q* Entry NCCNC(=O)C(CN)(Cc1cc(C(F)(F)F)cc(C(F)(F)F)c1)Cc1cc(C(F)(F)F)cc(C(F)(F)F)c1 needs its MIC filled in; supply it.
*A* 16

*Q* Provide one value: measured MIC of NCCNC(=O)C(CN)(Cc1cc(Br)cc(Br)c1)Cc1cc(Br)cc(Br)c1
*A* 8

*Q* Indicate its recorded MIC; the compound in question is NCCNCC(CN)(Cc1ccccc1Br)Cc1ccccc1Br
*A* 16

*Q* Output MIC of NCCNC(=O)C(CN)(Cc1ccc(F)c2ccccc12)Cc1ccc(F)c2ccccc12
*A* 8

*Q* Give the measured MIC for NCCNCC(CN)(Cc1ccc(F)c2ccccc12)Cc1ccc(F)c2ccccc12
*A* 4

From: ChEMBL document CHEMBL4311965
